# Assayed system: CAMK4 (human) (UniProt Q16566)
# Sequence (Q16566 whole entry, looked up): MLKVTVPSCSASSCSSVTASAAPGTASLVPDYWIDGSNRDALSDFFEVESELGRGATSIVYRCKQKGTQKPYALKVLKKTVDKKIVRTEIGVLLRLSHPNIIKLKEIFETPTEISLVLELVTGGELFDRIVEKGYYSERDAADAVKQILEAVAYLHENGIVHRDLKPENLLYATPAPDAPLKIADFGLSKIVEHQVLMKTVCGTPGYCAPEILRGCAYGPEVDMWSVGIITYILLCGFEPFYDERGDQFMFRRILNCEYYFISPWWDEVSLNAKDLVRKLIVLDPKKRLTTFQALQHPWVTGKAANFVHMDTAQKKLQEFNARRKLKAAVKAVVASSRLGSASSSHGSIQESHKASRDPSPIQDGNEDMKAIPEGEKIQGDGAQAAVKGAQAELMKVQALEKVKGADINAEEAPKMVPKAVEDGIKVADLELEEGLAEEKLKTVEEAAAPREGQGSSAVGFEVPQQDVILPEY
# Experiment notes: Caliper, Mobility shift assay off-chip
# Experimental context: compound 1.0 µM
Entries and their inhibition
Property label: inhibition (%)

> print(dat)
                                   compound  result.value
1  Cn1cc(-c2cnc3ccc4ccc(CS(N)(=O)=O)cc4c(=O)c3c2)cn1          -6.4
2  O=C(CCc1ccc2ccc3ncc(C4CCNCC4)cc3c(=O)c2c1)NCc1ccccn1          -3.4
3  Cn1cc(-c2cnc3ccc4ccc(CS(=O)(=O)CCc5ccccn5)cc4c(=O)c3c2)cn1           3.5
4  CN(c1ccc2ccc3ncc(-c4cnn(C)c4)cc3c(=O)c2c1)S(=O)(=O)NCc1ccccn1             8
5  Cn1cc(-c2cnc3ccc4ccc(CS(=O)(=O)NCC5CCCCN5)cc4c(=O)c3c2)cn1 (stereo not given)          -4.2

Attribution: the kinase profiling compilation of Christmann-Franck et al. (2016)
